These entries and their values trace back to a melting point compilation (Tetko et al.; mined from patent text by program, amines drawn as free bases though some values may be those of a salt).

Items are presented alongside their recorded melting point.

Incoming: So what does the record say about melting point for OC(CCCN1CC=C(c2cc(C(F)(F)F)on2)CC1)c1ccc(F)cc1 (stereo unspecified) ?
Outgoing: 120 to 122 °C

Incoming: So what does the record say about melting point for Oc1ccc2c(c1)CCC(CCN1CCCCC1)C2 (stereo unspecified) ?
Outgoing: 154 to 157 °C

Incoming: So what does the record say about melting point for "c1coc(C2=Nc3ccccc3N3CCc4cccc2c43)c1" ?
Outgoing: 144 to 146 °C

Incoming: So what does the record say about melting point for "COC(=O)c1ccc(NCc2ccc(F)cc2)cn1" ?
Outgoing: 107 to 108 °C

====

Items are presented alongside their recorded melting point.

Here is how some compounds turned out for melting point.
# compound, observation.type, result
records = [
    ("COc1ccc(C2(CC(=O)O)CNC(=O)C2)cc1OC (stereo not drawn)", "melting point", "162 to 165 °C"),
    ("C=C1CC(COc2ccc3ccc(=O)oc3c2)(c2ccccc2)OC1=O (stereo not drawn)", "melting point", "105 to 106 °C"),
    ("CC(C)CCc1c(-c2ccc(S(N)(=O)=O)cc2)cnn(-c2ccc(F)c(F)c2)c1=O", "melting point", "171 to 173 °C"),
    ("COc1ccc2c(c1)C(C)(CC#N)C(=O)N2C (stereo not drawn)", "melting point", "75.5 to 76 °C"),
    ("C#CCN(C(=O)CCl)c1c(C)nc(N(C)C)nc1C", "melting point", "108 to 110 °C"),
    ("CC(C)c1cc2ncnn2nc1SCCCCl", "melting point", "82 to 83 °C"),
    ("CCOC(=O)c1cnc(-c2ccc(OC)cc2OC)[nH]c1=O", "melting point", "190 to 192 °C"),
]

Query compound follows.
Incoming: So what does the record say about melting point for "Cc1ccc(S(=O)(=O)N[C@@H](C)C(=O)Oc2csc(-c3ccccc3)n2)cc1" ?
Outgoing: 110 to 112 °C

====

observation.type: melting point

# compound, melting point
measured = [
    ("COCCC(O)c1cc2c(=O)n(NS(C)(=O)=O)c(=O)[nH]c2cc1C(F)(F)F (stereo unspecified)", "180 to 184 °C"),
]

Incoming: So what does the record say about melting point for CC1CCC2C(C)(C)C(=O)OC3OC4(C)CCC1C32OO4 (single isomer, unassigned; (+)) ?
Outgoing: 117 to 118 °C

Incoming: So what does the record say about melting point for "CS(=O)(=O)c1c(F)cc(C2=C(c3ccccc3)C(=O)OC2)cc1F" ?
Outgoing: 204 °C

Incoming: So what does the record say about melting point for "CCOP(=S)(OCC)ON=C1C=CC(=C(C#N)c2ccccc2C)S1" ?
Outgoing: 86 to 87 °C

Incoming: So what does the record say about melting point for "Cc1cc(-c2ccc(Cl)c(Cl)c2)n(-c2ccc(S(N)(=O)=O)cc2)c1" ?
Outgoing: 136 to 138 °C

Incoming: So what does the record say about melting point for "CCOCc1nc2c(N)nc3ccc(O)cc3c2n1CC(C)(C)NC(=O)C1CCCCC1" ?
Outgoing: 231 to 232 °C

====

Items are presented alongside their recorded melting point.

Here is how some compounds turned out for melting point.
# compound, observation.type, result
rows = [
    ("COC(=O)c1cc2c(Cl)cc(C(=O)OC)c(Cl)c2c(Cl)c1Cl", "melting point", "140 to 142 °C"),
    ("O=c1[nH]c(=O)n(C2CC(O)C(COCc3ccccc3)O2)cc1F (stereo unspecified)", "melting point", "129 to 130 °C"),
    ("O=C(O)Cc1ccc(NC(=O)C(COc2ccc(Cl)cc2)NS(=O)(=O)c2ccc(Cl)cc2)cc1 (racemic)", "melting point", "205 to 207 °C"),
    ("CCCS(=O)(=O)c1cccc(-c2nc(=O)c3ccccc3s2)n1", "melting point", "174 °C"),
    ("Nc1ncc(CCCCc2ccc(Cl)cc2)c(N)n1", "melting point", "159 to 162 °C"),
]

Incoming: So what does the record say about melting point for "CCOCc1nc2c(N)nc3cc(CCCO)ccc3c2n1CC(C)(C)O" ?
Outgoing: 177 to 178 °C

Incoming: So what does the record say about melting point for "O=C1NCCCN1C1(CO)CCN(Cc2ccccc2)CC1" ?
Outgoing: 210 °C

Incoming: So what does the record say about melting point for "Nc1cc(C(=O)c2ccccc2)ccc1N1CCCC1" ?
Outgoing: 112 °C
